From: the supplement of paper PMC12764529

# ASSAY NAME: folding stability dG unfold from trypsin proteolysis; higher = more stable
ENDPOINT NAME: folding stability dG unfold

>>> print(df.to_string())
                              sequence_text  experimental_result
0  SAGNIMVQVEPDPGGTVKVEIMFMIPLPNGWPIMIQIEWEVRVDEDGEPELKMPIEIFFSEEALDKGFSAGG [r19_63_TrROS]        2.06 kcal/mol
1  SAGGSAIEIEPAPDNVLVVTADLPPNVPAEKLVEALKDLIPDVEFETSSSADGRHVIVLRLPPDVFSAGGSA [r15_1047_TrMRF]        1.05 kcal/mol
2  SAGGSAGGSMITLTLPDEEALRAYVEQLVADAGTEITEVTVTPLAPDTVEAEVSIDPTDPVGLSAGGSAGGS [r12_647_JUSTAS]        1.09 kcal/mol
3  SAGGSAGGSAGGKPKKVILIEADTLEEALAAAEALAPPGAKVTVTLVERDGKLYLLVTVDSAGGSAGGSAGG [r7_877_TrROS_Hall]        2.16 kcal/mol
